Every entry's value here was drawn from paper PMC12892976.

- Tested on: Trichophyton rubrum
- protocol: MIC/MFC broth microdilution (CLSI)
- experimental.context: Trichophyton rubrum R-218

# molecule, target.entity, limit.qualifier, MIC / MEC [µg/mL]
records = [
    ("CCC(C)n1ncn(-c2ccc(N3CCN(c4ccc(OCC5COC(Cn6cncn6)(c6ccc(Cl)cc6Cl)O5)cc4)CC3)cc2)c1=O (stereo not shown)", "Trichophyton rubrum", "=", 8),
    ("CCCCCCCCCCn1cc[n+](CC(O)(P(=O)(O)O)P(=O)(O)O)c1 [10-ZOL, Decyl-zoledronate]", "Trichophyton rubrum", "=", 2),
    ("Nc1nc(=O)[nH]cc1F", "Trichophyton rubrum", ">", 64),
    ("O=P(O)(O)C(O)(Cn1ccnc1)P(=O)(O)O [ZOL, zoledronate]", "Trichophyton rubrum", "=", 128),
]
